Overview of recorded pIC50 for various compounds
- assayed target: bovine cardiac myosin (Bos taurus)
- Construct: The source of cardiac myosin was from bovine heart in the form of skinned myofibrils; from tissue; host or cells: bovine heart, skinned myofibrils
- assay procedure: Myosin inhibition assay (PK/LDH-coupled ATPase, bovine cardiac myofibrils)
- Assay type: biochemical
- conditions used: bovine cardiac myofibrils, calcium giving 75% activation (pCa75); read-out: Biochemical Activity (pCa75)
pIC50: −log10 of the molar value.

For orientation, consider the following solved cases.
CC(C)n1c(=O)cc(N[C@@H](C)c2cc(F)ccc2F)[nH]c1=O | > 6.00
C[C@H](Nc1cc(=O)n(C2CCOC2)c(=O)[nH]1)c1ccccc1 (some centres unmarked) | 4.82 to 6.00
Cc1nccn1-c1cccc([C@H](C)Nc2cc(=O)n(C(C)C)c(=O)[nH]2)c1 | > 6.00

[in] I am curious: what pIC50 value has been reported for `C[C@H](Nc1cc(=O)n(-c2cncnc2)c(=O)[nH]1)c1ccccc1` ?
[out] 4.82 to 6.00

[in] Similarly, `CC(C)n1c(=O)[nH]c(N[C@@H](C)c2cccc(F)c2)c(F)c1=O` ?
[out] > 6.00

* * *

- assayed target: bovine cardiac myosin (Bos taurus, UniProt Q9BE39)
- Construct: The source of cardiac myosin was from bovine heart in the form of skinned myofibrils; from tissue; host or cells: bovine heart, skinned myofibrils
- Sequence (Q9BE39 whole entry): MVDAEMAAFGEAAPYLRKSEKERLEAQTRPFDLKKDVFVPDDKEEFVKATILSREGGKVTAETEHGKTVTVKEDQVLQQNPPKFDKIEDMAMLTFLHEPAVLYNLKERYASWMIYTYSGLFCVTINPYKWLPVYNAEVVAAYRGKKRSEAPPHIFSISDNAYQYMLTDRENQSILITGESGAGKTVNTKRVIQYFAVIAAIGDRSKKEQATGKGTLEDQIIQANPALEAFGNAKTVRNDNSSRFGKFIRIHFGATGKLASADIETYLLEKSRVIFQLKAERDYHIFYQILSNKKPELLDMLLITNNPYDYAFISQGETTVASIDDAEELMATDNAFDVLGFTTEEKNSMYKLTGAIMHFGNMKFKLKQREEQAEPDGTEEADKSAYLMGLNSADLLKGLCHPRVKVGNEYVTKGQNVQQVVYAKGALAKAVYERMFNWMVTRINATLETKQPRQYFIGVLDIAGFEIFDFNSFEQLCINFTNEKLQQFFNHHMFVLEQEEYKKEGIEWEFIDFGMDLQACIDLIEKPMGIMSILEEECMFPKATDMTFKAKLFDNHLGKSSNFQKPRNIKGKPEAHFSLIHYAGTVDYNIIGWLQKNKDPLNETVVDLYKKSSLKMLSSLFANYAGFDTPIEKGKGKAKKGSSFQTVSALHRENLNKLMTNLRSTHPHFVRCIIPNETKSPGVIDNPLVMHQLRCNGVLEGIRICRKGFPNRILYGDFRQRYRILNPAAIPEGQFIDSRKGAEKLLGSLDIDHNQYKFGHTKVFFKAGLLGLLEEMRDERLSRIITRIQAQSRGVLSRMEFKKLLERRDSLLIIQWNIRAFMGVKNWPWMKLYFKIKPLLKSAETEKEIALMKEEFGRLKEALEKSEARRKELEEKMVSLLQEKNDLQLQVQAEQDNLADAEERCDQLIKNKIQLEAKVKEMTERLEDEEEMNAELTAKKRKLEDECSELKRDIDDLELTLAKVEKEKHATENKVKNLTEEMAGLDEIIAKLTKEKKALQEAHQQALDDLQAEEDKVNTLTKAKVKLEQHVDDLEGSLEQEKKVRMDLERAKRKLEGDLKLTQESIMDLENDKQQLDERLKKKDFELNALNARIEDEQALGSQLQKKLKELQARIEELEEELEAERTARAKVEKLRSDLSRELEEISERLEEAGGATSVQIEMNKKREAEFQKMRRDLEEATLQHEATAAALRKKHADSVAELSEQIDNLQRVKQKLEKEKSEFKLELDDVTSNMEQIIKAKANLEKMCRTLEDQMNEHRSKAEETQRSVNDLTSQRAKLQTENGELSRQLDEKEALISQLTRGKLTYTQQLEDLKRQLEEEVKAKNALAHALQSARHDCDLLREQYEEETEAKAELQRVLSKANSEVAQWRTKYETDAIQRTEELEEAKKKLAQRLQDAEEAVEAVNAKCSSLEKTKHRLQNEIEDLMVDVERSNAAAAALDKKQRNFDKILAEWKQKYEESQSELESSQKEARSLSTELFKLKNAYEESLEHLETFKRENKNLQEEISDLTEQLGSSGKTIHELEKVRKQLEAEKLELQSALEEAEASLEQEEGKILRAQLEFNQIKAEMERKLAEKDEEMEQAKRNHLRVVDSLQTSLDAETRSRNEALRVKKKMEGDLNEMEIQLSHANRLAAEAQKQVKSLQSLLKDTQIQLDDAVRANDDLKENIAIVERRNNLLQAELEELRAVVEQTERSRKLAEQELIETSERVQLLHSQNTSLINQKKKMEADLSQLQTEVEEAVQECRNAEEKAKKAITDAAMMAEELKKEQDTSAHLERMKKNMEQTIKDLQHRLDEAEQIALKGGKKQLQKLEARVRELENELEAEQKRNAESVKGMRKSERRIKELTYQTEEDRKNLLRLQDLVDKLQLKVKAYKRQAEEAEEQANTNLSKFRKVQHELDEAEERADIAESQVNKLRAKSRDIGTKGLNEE
- Sequence (P85100 whole entry partner): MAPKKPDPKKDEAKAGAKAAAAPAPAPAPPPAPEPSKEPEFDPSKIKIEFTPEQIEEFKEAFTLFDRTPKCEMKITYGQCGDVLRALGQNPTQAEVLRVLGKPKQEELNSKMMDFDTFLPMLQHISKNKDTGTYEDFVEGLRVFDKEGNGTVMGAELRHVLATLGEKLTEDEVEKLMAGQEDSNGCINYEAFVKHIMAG
- Sequence (Q3SZE5 whole entry partner): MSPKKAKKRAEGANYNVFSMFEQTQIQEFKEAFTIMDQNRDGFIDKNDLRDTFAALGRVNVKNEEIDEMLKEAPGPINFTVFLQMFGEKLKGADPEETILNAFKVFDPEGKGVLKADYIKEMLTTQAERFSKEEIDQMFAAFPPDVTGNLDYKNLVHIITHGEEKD
- assay procedure: Myosin inhibition assay (PK/LDH-coupled ATPase, bovine cardiac myofibrils)
- Type: biochemical
- conditions used: bovine cardiac myofibrils, calcium giving 75% activation (pCa75); read-out: Biochemical Activity (pCa75)
reported metric: IC50

CC(C)n1c(=O)cc(N[C@H](c2ccccc2)C2CC2)[nH]c1=O [Compound 6] | < 1000 nM

[in] Which IC50 is listed for C[C@H](Nc1cc(=O)n([C@@H](C)C(F)(F)F)c(=O)[nH]1)c1ccccc1 [Compound 95] ?
[out] < 1000 nM

[in] For C[C@H](Nc1cc(=O)n(-c2cccnc2)c(=O)[nH]1)c1ccccc1 [Compound 15] then?
[out] < 1000 nM

[in] Moving on to C[C@H](Nc1cc(=O)n(C2CCOCC2)c(=O)[nH]1)c1ccccc1 [Compound 9]
[out] < 1000 nM

[in] And CC(C)n1c(=O)cc(N[C@@H](C)c2ccccc2F)[nH]c1=O [Compound 26] ?
[out] < 1000 nM

[in] Would you mind doing CC(C)n1c(=O)cc(N[C@@H](C)c2cccc(-n3cncn3)c2)[nH]c1=O [Compound 41] as well?
[out] < 1000 nM

[in] And CCn1c(=O)cc(N[C@@H](C)c2ccccc2)[nH]c1=O [Compound 46] ?
[out] 1000 to 15000 nM

[in] Request: Cc1c(N[C@@H](C)c2ccccc2)[nH]c(=O)n(C(C)C)c1=O [Compound 25]
[out] > 15000 nM

[in] Record: C[C@H](Nc1cc(=O)n(C2CCN(C(=O)c3ccccc3)CC2)c(=O)[nH]1)c1ccccc1 [Compound 84]
[out] < 1000 nM

[in] // repeat for C[C@H](Nc1cc(=O)n(C2CCN(S(C)(=O)=O)CC2)c(=O)[nH]1)c1ccccc1 [Compound 12] and report
[out] < 1000 nM

[in] Also check C[C@H](Nc1cc(=O)n(C)c(=O)[nH]1)c1ccccc1 [Compound 47]
[out] 1000 to 15000 nM
